molecular target: Peroxisome proliferator-activated receptor alpha (Homo sapiens); assay: Competitive binding affinity to PPARalpha (unknown origin) by TR-FRET assay
Sequence (Q07869 whole entry): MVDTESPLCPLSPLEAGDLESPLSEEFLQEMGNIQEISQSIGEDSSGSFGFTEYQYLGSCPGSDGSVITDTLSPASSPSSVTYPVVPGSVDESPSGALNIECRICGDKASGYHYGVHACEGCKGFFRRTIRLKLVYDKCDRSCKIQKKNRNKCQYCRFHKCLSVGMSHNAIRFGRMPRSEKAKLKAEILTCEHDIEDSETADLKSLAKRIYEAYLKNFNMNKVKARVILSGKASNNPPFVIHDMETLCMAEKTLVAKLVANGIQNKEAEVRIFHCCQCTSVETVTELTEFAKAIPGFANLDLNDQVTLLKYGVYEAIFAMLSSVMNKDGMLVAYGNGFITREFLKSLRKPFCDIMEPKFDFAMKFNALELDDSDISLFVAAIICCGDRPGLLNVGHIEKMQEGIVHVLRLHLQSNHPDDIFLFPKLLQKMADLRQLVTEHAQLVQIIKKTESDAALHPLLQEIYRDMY
ASSAY_METRIC: pKi
Here pKi is given on a logarithmic scale as minus log10 of the concentration in mol/L.

Which measured pKi value corresponds to "COc1c(CC=C(C)C)c(O)c(C(=O)O)c(CCc2ccccc2)c1CC=C(C)C" ?
5.04

###

target: Peroxisome proliferator-activated receptor delta (Homo sapiens, UniProt Q03181); assay: Competitive binding affinity to PPARbeta/delta (unknown origin) by TR-FRET assay
Sequence (Q03181 whole entry): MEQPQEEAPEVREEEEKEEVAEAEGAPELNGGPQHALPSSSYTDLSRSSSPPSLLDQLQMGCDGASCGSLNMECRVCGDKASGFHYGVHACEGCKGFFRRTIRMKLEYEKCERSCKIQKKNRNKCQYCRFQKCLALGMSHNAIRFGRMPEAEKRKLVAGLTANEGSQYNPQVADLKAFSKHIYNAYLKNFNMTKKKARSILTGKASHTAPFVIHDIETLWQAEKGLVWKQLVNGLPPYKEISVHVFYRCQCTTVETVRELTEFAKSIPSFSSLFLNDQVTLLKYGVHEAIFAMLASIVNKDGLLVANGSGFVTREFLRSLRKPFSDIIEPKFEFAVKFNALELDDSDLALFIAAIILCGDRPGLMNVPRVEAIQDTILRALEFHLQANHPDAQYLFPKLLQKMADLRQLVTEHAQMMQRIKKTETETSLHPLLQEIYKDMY
ASSAY_METRIC: Ki (µM)
The figure you give is taken to be in µM; do not add the unit.

Which measured Ki value corresponds to "COc1c(CC=C(C)C)c(O)c(C(=O)O)c(CCc2ccccc2)c1CC=C(C)C" ?
5.2

###

Listing of recorded Efficacy by entry.
system: MCF7; assay: Antiproliferative activity against human MCF7 cells assessed as cellular DNA content after 96 hrs by CyQUANT NF fluorescence assay relative to control; assay type: functional
The figure you give is taken to be in %; do not add the unit.

Here are 4 compounds together with their reported answers.
>  <COMPOUND>
COc1c(CC=C(C)C)c(O)c(C(=O)O)c(CCc2ccccc2)c1CC=C(C)C

>  <ENDPOINT_UNIT>
%

>  <Efficacy>
92

$$$$
>  <COMPOUND>
O=c1[nH]cc(F)c(=O)[nH]1 [FLUOROURACIL]

>  <ENDPOINT_UNIT>
%

>  <Efficacy>
80

$$$$
>  <COMPOUND>
COc1cc(CCc2ccccc2)c(C(=O)O)c(O)c1C/C=C(\C)CCC=C(C)C

>  <ENDPOINT_UNIT>
%

>  <Efficacy>
94

$$$$
>  <COMPOUND>
CCc1c2c(nc3ccc(OC(=O)N4CCC(N5CCCCC5)CC4)cc13)-c1cc3c(c(=O)n1C2)COC(=O)[C@]3(O)CC [IRINOTECAN]

>  <ENDPOINT_UNIT>
%

>  <Efficacy>
82

$$$$

Please turn your attention to the following entry.
Which measured Efficacy value corresponds to COc1cc([C@@H]2c3cc4c(cc3[C@@H](O[C@@H]3O[C@@H]5CO[C@@H](C)O[C@H]5[C@H](O)[C@H]3O)[C@H]3COC(=O)[C@H]23)OCO4)cc(OC)c1O [ETOPOSIDE] ?
78

###

test system: T84; test: Antiproliferative activity against human T84 cells assessed as cellular DNA content after 96 hrs by CyQUANT NF fluorescence assay; format: functional, cell-based; settings: T84, 96 h
ASSAY_METRIC: pIC50
Here pIC50 is given on a logarithmic scale as minus log10 of the concentration in mol/L.

Here are 3 compounds together with their reported answers.
>  <COMPOUND>
COc1cc([C@@H]2c3cc4c(cc3[C@@H](O[C@@H]3O[C@@H]5CO[C@@H](C)O[C@H]5[C@H](O)[C@H]3O)[C@H]3COC(=O)[C@H]23)OCO4)cc(OC)c1O [ETOPOSIDE]

>  <RECORDED_MEASUREMENT>
5.52

$$$$
>  <COMPOUND>
O=c1[nH]cc(F)c(=O)[nH]1

>  <RECORDED_MEASUREMENT>
5.21

$$$$
>  <COMPOUND>
COc1cc(CCc2ccccc2)c(C(=O)O)c(O)c1C/C=C(\C)CCC=C(C)C

>  <RECORDED_MEASUREMENT>
4.89

$$$$

Which measured pIC50 value corresponds to "COc1c(CC=C(C)C)c(O)c(C(=O)O)c(CCc2ccccc2)c1CC=C(C)C" ?
4.96

Which measured pIC50 value corresponds to "CCc1c2c(nc3ccc(OC(=O)N4CCC(N5CCCCC5)CC4)cc13)-c1cc3c(c(=O)n1C2)COC(=O)[C@]3(O)CC" ?
5.92
